System: MS2 coat protein
Experiment: apparent KD of MS2 coat protein; designed switch direction (-1 OFF switch, 1 ON switch): 1; higher = weaker reporter binding
Conditions: input ligand: microRNA oligo, concentration not stated
Please respond with reported apparent KD of MS2 coat protein for every item in the list.
I only need the number, in µM, no unit after it.

## Input Look up apparent KD of MS2 coat protein: GGCCUCUGUCAAGGAUAUGCUACCGUUUCGGUAGCAGAAGGUGAUCACAUGAGGAUCACCCAUGUUUAGGCCAACAGGCCCGCC (Eterna round: R96, puzzle: Same State NG 1)
## Output 0.445

## Input Entry under review: GUAAAACAUGAGGAUCACCCAUGUCAACAAAGUCGAGGAUAUGGGCAAAUAAAAUAAGAACCAGAAGGCGAAUAAG [salish99_SS1_r3_009] (Eterna round: R96, puzzle: Same State 1) . Reported apparent KD of MS2 coat protein?
## Output 0.125

## Input What value of apparent KD of MS2 coat protein has been reported for the following sequence? UAAAAGAAGUUAGGAUAUGGUGAAGUACUGUGGCCAGAAGGGACGACUAACCGAGAAAGACAUGAGGAUCACCCAUGUCCACAG [Eternabot solution 20] (Eterna round: R96, puzzle: Same State NG 1)
## Output 0.057

## Input Sample GGGAGAGUUACAGGAUAUGGUGAGGAUUACCCACUAGAAGGGUAAACAUGUGAAUCGGACAUGAGGAUCACCCAUGUUGGGCGU (Eterna round: R96, puzzle: Same State NG 1) — what was its apparent KD of MS2 coat protein?
## Output 0.16

## Input Give the measured apparent KD of MS2 coat protein of AUUUUUAAUGCAGGAUAUGAUUAACAUGAGGAUCACCCAUGUGGUGUUGUGAGUAAGGAGAGUGAUCAGAAGGGCAUUUUGUUU [JMF's solution 83] (Eterna round: R96, puzzle: Same State NG 2) .
## Output 0.4

====

System: MS2 coat protein
Assay: apparent KD of MS2 coat protein; higher = weaker reporter binding
Conditions: Eterna round: R107; input ligand: arginine 13.2 mM
property: apparent KD of MS2 coat protein

## Input Fill blank: measured apparent KD of MS2 coat protein of the sequence ACCAACCACACCCUUCACUGUUUUCGCCGCCGAGGACCGGUACGGCCGCCACUCGUACAAAGACAUGAGGAUCACCCAUGUGCCU [theeternabot_exclusion_MS2_Trp_A_7] is ____.
## Output 14.8 nM

## Input Looking for the measured apparent KD of MS2 coat protein of UUCUUUGACGAUCUGGGUUUACCAGAUCGACGAGGACCGGUACGGCCGCCACUCGUGUUUUCUUUACAUGAGGAUCACCCAUGUU [#16Tryptophan A Same State] , can you help?
## Output 16.2 nM

## Input Name the recorded apparent KD of MS2 coat protein for CACAUGAGGAUCACCCAUGUCUGAACUGAAGGAGCGCUAAACAAGGCAGGUAGGUCGCGGAAUCCUGUGUGCAUAUGCACACGGG [9.W] .
## Output 30.6 nM

## Input Can you look up the measured apparent KD of MS2 coat protein of AGUCUUAAAGGAAGGAGCGCAGUCAUAACAUGAGGAUCACCCAUGUCGAGGUGAGGGUCAUUGCAGGUAGGUCGCCUUACUAAGA [Same State - Arginine B (Freestyle 6)] for me?
## Output 77.7 nM

## Input apparent KD of MS2 coat protein for AGCGUUCGGUUUAUGCCGGACAAUGGGUGACGAGGACCGGUACGGCCGCCACUCGGGCGCCCGGUUACAUGAGGAUCACCCAUGU [Oresrile] ?
## Output 74.3 nM

## Input Name the reported apparent KD of MS2 coat protein value associated with the sequence UGAACAUGAGGAUCACCCAUGUAGUCAGAUACCAGACACUGCAUGGUCCCUUGGCAGCUGAAGAGCGUUUGCCAAAUAACGUUCA [Theo A SS t4]
## Output 52 nM

## Input Which apparent KD of MS2 coat protein reading was recorded for the sequence GCUGGGUGCGCAAGGACCUGGCGUUGCGAUACCAGCACGGUAACGUGCCCUUGGCAGCGCACAUGAGGAUCACCCAUGUGGUGUG [#1 Exclusion - Theophylline A Attempt #20 (HarryS)] ?
## Output 96.8 nM

## Input Entry under review: CGUAGGAUCGUGGAUACCAGUACCGCCCACGACAUGAGGAUCACCCAUGUAGGUAAUCUUUACCCUUGGCAGCCAUUUUUUUCUG [theeternabot_sameState_MS2_Theo_B_14] . Reported apparent KD of MS2 coat protein?
## Output 41 nM

## Input Sample GGCACAUAGUCGGCCGCCACUACGUGGAGAUCGGAGUACAUGAGGAUCACCCAUGUAUGGAAGGGUAGGACCGGGACUAUGUGCC [Horalka] — what was its apparent KD of MS2 coat protein?
## Output 38.3 nM

## Input Given the entry AACAUACAAUUUUAGGUGGAUAUAAGGCGGCGAGGACCGGUACGGCCGCCACUCGCGUACAUGAGGAUCACCCAUGUCUGAAGCU [Same State - Tryptophan A (Freestyle 6)] , report its measured apparent KD of MS2 coat protein.
## Output 12.8 nM

## Input What does the data say about its apparent KD of MS2 coat protein? Entry: UGUCUAGUAAUCGAUACCAGCUACAUGAGGAUCACCCAUGUAGUUCGAACGGCCGCAUGUAGCCCUUGGCAGCGAAUAGUUACAU [Onbitelege]
## Output 14.2 nM

## Input Could you tell me which apparent KD of MS2 coat protein is on file for GCACCAGGUACGGAUACCAGCUAUAGGCCCAAUGGGCGACAUGAGGAUCACCCAUGUGAUGGCCCUUGGCAGCUGUACCUGGUGC [SSThB NP+V+V2 #9] ?
## Output 148 nM
